Entry source: PubChem BioAssay (NCI)

What growth was measured for each of the following?
tested on: OVCAR-3 ovarian; experiment: NCI-60 one-dose screen, 48 h (100 = growth as untreated, 0 = no growth, -100 = all killed); details: 10 µM
About 83,000 compounds went through this panel and 20% of them were active in at least one assay; those are over-represented in the sample as a whole.
Express it in %; write the number only.

What measured growth goes with CCCc1nc(C(C)(C)O)c(C(=O)O)n1Cc1ccc(-c2ccccc2-c2nn[nH]n2)cc1 ?
117

What measured growth goes with C/C=C/C1=CN2C(=O)c3cc(OC4OC(C)C(NC)C(C)(O)C4O)c(C)c(O)c3N=C[C@@H]2C1 (some centres undefined) ?
-4.33

What measured growth goes with Cc1ccc(-c2c3c(N)nc(-c4cccnc4)nc3nc3c2c(C)nn3-c2ccccc2)cc1 ?
104

What measured growth goes with Nc1nccc(OCCO)n1 ?
105

What measured growth goes with CCCCCCCCCCCC[n+]1c(C)cc(N)c2ccccc21 ?
18

What measured growth goes with O=C1CC(=O)N(C(=O)c2nn(-c3ccc(Cl)cc3)cc2O)N1 ?
-4.11

What measured growth goes with CCOC(=O)C1=CSC2=NC3=C(CCC/C3=C\c3ccc(Cl)cc3)C(c3ccc(Cl)cc3)N12 (centres undefined) ?
100

What measured growth goes with C=C(C)[C@@H]1CC[C@]2(COCCC#N)CC[C@]3(C)[C@H](CC[C@@H]4[C@@]5(C)Cc6c([nH]c7ccccc67)C(C)(C)[C@@H]5CC[C@]43C)[C@@H]12 ?
93.9

What measured growth goes with COc1cc2cc(Oc3ccc(NC(=O)Nc4cccc(C(F)(F)F)c4)cc3)c(C)nc2cc1OC ?
-0.54
